B1: glmS ribozyme (parent)
chain: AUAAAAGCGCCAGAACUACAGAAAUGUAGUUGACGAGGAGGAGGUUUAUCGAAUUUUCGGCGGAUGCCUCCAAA

- Variants of: B1
- Assay Summary: kcat; higher = faster cleavage; RNA array
- Experimental Setup: with glucosamine-6-phosphate
Variants at the floor of the assay were thinned out.
Quantity Kind: kcat (s⁻¹)
Supply the numeric figure in s⁻¹, leaving out any unit text.

Answered cases to consult:
* G37A U54A U65G | 0.000309
* A12C G66C C70A | 8.64e-05
* C11G A14G | 1.62e-05
* A39U C58A | 0.000543
* G13C U30C A52G | 1.64e-05

Any idea what its kcat is? The variant is U30A U56C
0.0028

I'd like to know its kcat. The variant in question is G40C C58A
1.41e-05

What does the record list as kcat for U46C C68U ?
0.000934

Please give the measured kcat for this variant: A15U U55C
0.00268

Record request: kcat value, item G41A
0.00567

Consider the variant shown here: U47G G59U What is its recorded kcat?
2.47e-05

// returns reported kcat for input G29C C70A
4.11e-05

Look up kcat: G43U C70U
2.12e-05

Returns the measured kcat for the input variant. Input: C50A A64G
1.03e-05

Requested field: kcat. Item: C50A C68G
5.05e-05

Given the entry C11A A53U , report its measured kcat.
0.000128

Sample A53U C58G — what was its kcat?
9.99e-05
